- TEST: chemical genetic growth profiling, strain panel (AID 1159580);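 also: tested at 20 µM; growth read once vehicle control cultures reached saturation at 30 °C; 1 = growth at the plate median or of vehicle wells; lower values mean less growth of the strain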
- MEASUREMENT_SETUP: S. cerevisiae deletion strains, growth OD, locus YNR049C, strain mso1, hits give low values
Hit rate of the full screen: of about 5,500 compounds, about 2,000 (36%) were called active. Inconclusive results (about 18%) are left out. This is one part of the list.
REPORTED_PROPERTY: normalized growth

So what's the measured normalized growth for this one? Cc1ccsc1/C=C/C1=NCCCN1C
0.987 (inactive)

So what's the measured normalized growth for this one? CC(=O)/C(=C\c1ccccc1)CC(=O)O
0.998 (inactive)

So what's the measured normalized growth for this one? NCCCC[C@H](N[C@@H](CCc1ccccc1)C(=O)O)C(=O)N1CCC[C@H]1C(=O)O
0.964 (inactive)

So what's the measured normalized growth for this one? CCN(CC)CCNC(=O)c1cc(S(C)(=O)=O)ccc1OC
0.96 (inactive)

So what's the measured normalized growth for this one? C[C@H]1[C@H]2CCC3C4CC=C5C[C@@H](N(C)C)CC[C@]5(C)C4CC[C@@]32CN1C (stereo partly drawn)
0.997 (inactive)

So what's the measured normalized growth for this one? Oc1c(Cl)cc(Cl)c2cccnc12
0.0631 (active)

So what's the measured normalized growth for this one? O=C(O)/C=C/C=C/c1ccccc1
0.771 (active)

So what's the measured normalized growth for this one? Nc1ccc(C(=O)NCC(=O)O)cc1
1.01 (inactive)

So what's the measured normalized growth for this one? COc1cccc(/C=C/C(=O)O)c1C(C)C
0.967 (inactive)

So what's the measured normalized growth for this one? Oc1c(Br)cc(Br)c2cccnc12
0.0578 (active)

So what's the measured normalized growth for this one? Cc1ccc2c(Cl)cc(Cl)c(O)c2n1
1.03 (inactive)

So what's the measured normalized growth for this one? Oc1c(I)cc(I)c2cccnc12
0.0812 (active)

So what's the measured normalized growth for this one? C[n+]1cccc(C(=O)[O-])c1
0.962 (inactive)

----------
- TEST: chemical genetic growth profiling, strain panel (AID 1159580);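 also: tested at 20 µM; growth read once vehicle control cultures reached saturation at 30 °C; 1 = growth at the plate median or of vehicle wells; lower values mean less growth of the strain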
- MEASUREMENT_SETUP: S. cerevisiae deletion strains, growth OD, locus YOR231W, strain MKK1, hits give low values
The whole screen tested about 5,500 compounds, of which about 2,000 (36%) were called active. Not shown: some 18% with an inconclusive outcome. Some of the results follow.
Give measured normalized growth for each item. Keep answers brief.
Lab note: jot the number down without any unit.

So what's the measured normalized growth for this one? O=C(NC(=S)Nc1cccc(C(F)(F)F)c1)c1ccc2nonc2c1
0.863

So what's the measured normalized growth for this one? COC(=O)C1=C(C)NC(C)=C(C(=O)OC)C1c1ccc(Cl)cc1Cl
0.933

So what's the measured normalized growth for this one? C[n+]1cccc(C(=O)[O-])c1
1.04

So what's the measured normalized growth for this one? CCOC(=O)C1=C(N)OC2=C(C(=O)CC(C)(C)C2)C1c1ccc(Cl)cc1Cl (stereo not given)
0.953

So what's the measured normalized growth for this one? OC[C@H]1O[C@H](OC[C@H]2O[C@@H](O)[C@H](O)[C@@H](O)[C@@H]2O)[C@H](O)[C@@H](O)[C@H]1O
1.04

----------
- TEST: chemical genetic growth profiling, strain panel (AID 1159580);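 also: tested at 20 µM; growth read once vehicle control cultures reached saturation at 30 °C; 1 = growth at the plate median or of vehicle wells; lower values mean less growth of the strain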
- MEASUREMENT_SETUP: S. cerevisiae deletion strains, growth OD, locus YER155C, strain BEM2 (second series), hits give low values
Screen size: about 5,500 compounds; about 2,000 (36%) were called active. Inconclusive results (about 18%) are left out. The list shows a part of the results.
Labelling field: enter rule met if recorded normalized growth is less than 1. Enter rule not met if it equals or exceeds that cut-off.

Lab note: normalized growth threshold 1. Does this molecule come in strictly under it? CC1(C)C(=O)C=C[C@@]2(C)C1=C(O)C(=O)[C@]1(C)C2CC[C@@]2(C)[C@H](c3ccoc3)C[C@H]3O[C@]321 (some centres undefined)
rule met

Lab note: normalized growth threshold 1. Does this molecule come in strictly under it? O=C(O)c1ccccc1Nc1cccc(C(F)(F)F)c1
rule met

Lab note: normalized growth threshold 1. Does this molecule come in strictly under it? O=C(O[C@@H]1Cc2c(O)cc(O)cc2O[C@@H]1c1cc(O)c(O)c(O)c1-c1c([C@H]2Oc3cc(O)cc(O)c3C[C@H]2O)cc(O)c(O)c1O)c1cc(O)c(O)c(O)c1
rule not met

Lab note: normalized growth threshold 1. Does this molecule come in strictly under it? COc1ccc(C(Cl)=C(c2ccc(OC)cc2)c2ccc(OC)cc2)cc1
rule not met

Lab note: normalized growth threshold 1. Does this molecule come in strictly under it? CCN(CC)CCOc1ccc2c(c1)C(=O)c1cc(OCCN(CC)CC)ccc1-2
rule met

Lab note: normalized growth threshold 1. Does this molecule come in strictly under it? Cc1ccc(/C(=C\CN2CCCC2)c2ccccn2)cc1
rule not met

Lab note: normalized growth threshold 1. Does this molecule come in strictly under it? CC/C(=C(\c1ccccc1)c1ccc(OCCN(C)C)cc1)c1ccccc1
rule met
